# reported pIC50; entries follow
experimentalTarget: PTGER4 (EP4) (Homo sapiens (Human))
Sequence (P35408 whole entry): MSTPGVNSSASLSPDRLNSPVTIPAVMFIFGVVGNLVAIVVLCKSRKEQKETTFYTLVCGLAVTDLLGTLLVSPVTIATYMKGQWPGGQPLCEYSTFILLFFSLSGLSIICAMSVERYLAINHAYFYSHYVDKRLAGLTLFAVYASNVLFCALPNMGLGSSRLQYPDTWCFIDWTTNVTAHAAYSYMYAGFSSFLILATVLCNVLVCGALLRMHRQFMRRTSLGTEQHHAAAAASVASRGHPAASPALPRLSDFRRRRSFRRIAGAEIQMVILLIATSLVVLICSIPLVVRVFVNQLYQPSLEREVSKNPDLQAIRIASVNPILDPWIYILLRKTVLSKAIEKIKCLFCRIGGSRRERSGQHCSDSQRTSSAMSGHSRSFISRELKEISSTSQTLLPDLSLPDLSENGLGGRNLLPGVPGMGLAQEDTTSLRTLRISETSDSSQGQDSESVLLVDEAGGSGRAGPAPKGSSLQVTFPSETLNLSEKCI
experiment: cell-based
pIC50: −log10 of the molar value.
readout: pIC50

# compound, assayResult
measured = [
    ("CCOc1cc(-c2cc(NCCc3cc4ccsc4cc3C)ncn2)ccc1C(=O)O [Ex 254]", 6.06),
    ("O=C(O)Cc1ccc(-c2cc(NCCc3ccc4scc(Cl)c4c3)ncn2)cc1OC(F)(F)F [Example 499]", 6.77),
    ("CCOc1cc(-c2cc(NCCc3cc4ccccc4cc3OC)ncn2)ccc1OCC(=O)O [Ex 122]", 7.72),
]

---

# Lookup of reported IC50 keyed by entry
experimentalTarget: EP2 (Homo sapiens (Human), UniProt P43116)
Sequence (P43116 whole entry): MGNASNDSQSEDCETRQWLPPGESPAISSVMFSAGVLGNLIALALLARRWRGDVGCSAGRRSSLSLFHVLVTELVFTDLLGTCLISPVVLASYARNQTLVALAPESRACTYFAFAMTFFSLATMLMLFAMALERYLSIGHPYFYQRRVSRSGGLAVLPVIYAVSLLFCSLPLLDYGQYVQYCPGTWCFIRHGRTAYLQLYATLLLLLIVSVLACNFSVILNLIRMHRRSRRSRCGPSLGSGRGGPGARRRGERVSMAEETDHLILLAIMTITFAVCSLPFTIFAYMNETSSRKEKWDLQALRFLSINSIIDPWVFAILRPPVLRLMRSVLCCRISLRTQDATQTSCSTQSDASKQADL
experiment: hEP2 cAMP assay (SF295 glioblastoma cells, HTRF cAMP)
particulars: antagonistic activity
readout: IC50 (nM)

# compound, assayResult
measured = [
    ("CSc1cc(-c2cc(NCCc3ccc4scnc4c3)ncn2)ccc1C(=O)O [Ex 237]", 160),
    ("COc1cc(-c2cc(NCCc3ccc4sccc4c3)ncn2)cc(OC)c1C(=O)O [Ex 320]", 440),
    ("CCOc1cc(-c2cc(NCCc3ccc4cc[nH]c4c3)ncn2)sc1C(=O)O [Ex 24]", 52),
    ("CCOc1cc2sccc2cc1CCNc1cc(-c2ccc(C(=O)O)c(OCC)c2)ncn1 [Ex 126]", 6),
    ("CCOc1cc(-c2cc(NCCc3cc4c(cc3OC)OCCCO4)ncn2)sc1C(=O)O [Ex 21]", 912),
    ("CCOc1cc(-c2cc(NCCc3ccc4ccccc4c3C)ncn2)ccc1-c1noc(O)n1 [Ex 220]", 141),
    ("CSc1cc(-c2cc(NCCc3ccc4ccccc4c3)ncn2)ccc1C(=O)O [Ex 219]", 486),
    ("CSc1cc(-c2cc(NCCc3cc4ccsc4cc3C)ncn2)ccc1CC(=O)O [Ex 305]", 232),
    ("CCOc1cc(-c2cc(NCCc3ccc4sccc4c3)ncn2)sc1C(=O)O [Ex 5]", 28),
    ("CCOc1cc(-c2cc(NCCc3cc4ccoc4cc3F)ncn2)ccc1OC(C)C(=O)O (centres unmarked) [Ex 236]", 147),
    ("CSc1cc(-c2cc(NCCc3ccc4c(c3)OCCO4)ncn2)ccc1C(=O)O [Ex 310]", 564),
    ("Cc1c(CCNc2cc(-c3cc4c(C(=O)O)cccc4[nH]3)ncn2)ccc2ccccc12 [Ex 127]", 101),
    ("CCOc1cc(-c2cc(NCCc3cc(Cl)c4c(c3)OCCO4)ncn2)sc1C(=O)O [Ex 51]", 207),
    ("CCOc1cc(-c2cc(NCCc3c(OCC)cc4ccccc4c3C)ncn2)ccc1CC(=O)O [Example 420]", 257),
    ("C#Cc1c(CCNc2cc(-c3ccc(OCC(=O)O)c(OCC)c3)ncn2)ccc2ccccc12 [Ex 140]", 459),
    ("CCOc1cc(-c2cc(NCCc3ccc4ccccc4c3F)ncn2)ccc1OCC(=O)O [Ex 136]", 677),
    ("C#Cc1c(CCNc2cc(-c3ccc(C(=O)O)c(OCC)c3)ncn2)ccc2ccccc12 [Ex 141]", 328),
    ("CCOc1cc(-c2cc(NCCc3ccc4sccc4c3)nc(C)n2)ccc1CC(=O)O [Ex 308]", 926),
    ("CCOc1cc(-c2cc(NCCc3ccc4scc(C#N)c4c3)ncn2)ccc1C(=O)O [Ex 253]", 158),
    ("CCOc1cc(-c2cc(NCCc3cc4ccccc4cc3NC)ncn2)ccc1C(=O)O [Ex 312]", 2490),
    ("O=C(O)c1ccc(-c2cc(NCCc3ccc4cc[nH]c4c3)ncn2)cc1OC1CCC1 [Ex 278]", 187),
    ("CCCCOc1cc(-c2cc(NCCc3ccc4ccccc4c3C)ncn2)cc(F)c1C(=O)O [Ex 150]", 219),
    ("CCOc1cc(-c2cc(NCCc3ccc4sccc4c3C)ncn2)sc1C(=O)O [Ex 20]", 11),
    ("O=C(O)c1ccc(-c2cc(NCCc3ccc4ccsc4c3)ncn2)cc1OC1CCC1 [Ex 147]", 571),
    ("CCOc1cc(-c2cc(NCCc3cc4c(cc3OC)OCCO4)ncn2)ccc1OC(C)C(=O)O (centres unmarked) [Ex 201]", 133),
    ("CCOc1cc2ccccc2cc1CCNc1cc(-c2ccc(C(=O)O)c(OCC)c2)ncn1 [Ex 188]", 142),
    ("CCOc1cc(-c2cc(NCCc3cc4c(cc3SC)OCCO4)ncn2)ccc1OCC(=O)O [Ex 145]", 519),
    ("CCCc1cc(-c2cc(NCCc3cc(F)c4sccc4c3)ncn2)ccc1CC(=O)O [Example 390]", 590),
    ("CSc1cc(-c2cc(NCCc3ccc4cccc(F)c4c3)ncn2)ccc1C(=O)O [Ex 243]", 2100),
    ("O=C(O)c1ccc(-c2cc(NCCc3ccc4scnc4c3)ncn2)cc1OC1CCC1 [Ex 291]", 269),
    ("COc1cc2ccsc2cc1CCNc1cc(-c2ccc(C(=O)O)c(SC)c2)ncn1 [Ex 152]", 111),
    ("CCOc1cc(-c2cc(NCCc3cc4ccsc4cc3C)ncn2)ccc1CC(=O)O [Ex 290]", 194),
]
